System: c-Abl (mouse)
method summary: phosphorylation enrichment, bacterial display (enrichment ratio); higher = better substrate or ligand; peptides without Tyr show the background;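 also: 11-residue human phosphosite peptides and single-mutation variants displayed on the E. coli surface, counted by deep sequencing, each peptide's frequency after selection divided by its frequency in the unselected input library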;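 also: frequency after pTyr selection over input frequency; kinase dosed for 20-30% of maximal phosphorylation in three min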

- polymer sequence: "RAVLLYEFVGK [NATD1_Y45_YF]"
  system tested: "c-Abl (mouse)"
  phosphorylation enrichment: 1.54
- polymer sequence: "CTIIHYNFMCN [TP53_Y234_T231I_YF]"
  system tested: "c-Abl (mouse)"
  phosphorylation enrichment: 0.825
- polymer sequence: "YSMGCYEISLG [HMGCL_Y198]"
  system tested: "c-Abl (mouse)"
  phosphorylation enrichment: 1.08
- polymer sequence: "QSAGQYSSQGL [TNNI3K_Y788]"
  system tested: "c-Abl (mouse)"
  phosphorylation enrichment: 0.777
- polymer sequence: "AKKIKYFEGVS [PRKDC_Y682]"
  system tested: "c-Abl (mouse)"
  phosphorylation enrichment: 0.328
- polymer sequence: "HNELYYEAAEH [VANGL1_Y345_E347A]"
  system tested: "c-Abl (mouse)"
  phosphorylation enrichment: 0.854
- polymer sequence: "SVETPYGSVTF [NDRG2_Y47]"
  system tested: "c-Abl (mouse)"
  phosphorylation enrichment: 0.635
- polymer sequence: "EITSHYRHLLR [ZBTB46_Y14]"
  system tested: "c-Abl (mouse)"
  phosphorylation enrichment: 0.733
- polymer sequence: "TSNNPYFRDQA [RPGRIP1_Y846_A841T]"
  system tested: "c-Abl (mouse)"
  phosphorylation enrichment: 0.628
- polymer sequence: "YTFTSYYMHWV [IGHV1-46_Y51]"
  system tested: "c-Abl (mouse)"
  phosphorylation enrichment: 1.06
- polymer sequence: "SDVCMYRKNTF [SYNE2_Y570_I574T_YF]"
  system tested: "c-Abl (mouse)"
  phosphorylation enrichment: 0.636
- polymer sequence: "NGTVTYAIVAG [CDH23_Y1672]"
  system tested: "c-Abl (mouse)"
  phosphorylation enrichment: 0.688
- polymer sequence: "NNHGNYIVHLG [ETFDH_Y172_R175H]"
  system tested: "c-Abl (mouse)"
  phosphorylation enrichment: 0.53
- polymer sequence: "NHQYDYTFHWT [CSNK1A1_Y294_D297H]"
  system tested: "c-Abl (mouse)"
  phosphorylation enrichment: 0.7

###

Tested on: AncSZ
method summary: phosphorylation enrichment, bacterial display (enrichment ratio); higher = better substrate or ligand; peptides without Tyr show the background

- polymer sequence: "QNTADYYDLYG [PTPN11_Y62_G60A]"
  phosphorylation enrichment: 2.62
- polymer sequence: "FDDIAHIRKTL [PIK3CA_Y1021_Y1021H]"
  phosphorylation enrichment: 0.688
- polymer sequence: "RLLVVYPWTER [HBB_Y36_Q40E]"
  phosphorylation enrichment: 1.16
- polymer sequence: "TRDVNYGWVIR [MT-CYB_Y75_I78V]"
  phosphorylation enrichment: 1.16
- polymer sequence: "RFLRGYRQYAY [HLA-A_Y137_D140Y]"
  phosphorylation enrichment: 1.61
- polymer sequence: "TNYPLYLRSLE [MTM1_Y71_R69P]"
  phosphorylation enrichment: 1.18
- polymer sequence: "LQTFHYHGHSM [PDHA1_Y289_R288H_YF]"
  phosphorylation enrichment: 0.599
- polymer sequence: "ENAGYYFRISA"
  phosphorylation enrichment: 1.51
- polymer sequence: "NPIGLYSAETL [LDB3_Y202]"
  phosphorylation enrichment: 0.691
- polymer sequence: "IENKLYGTSDP [RET_Y1062_M1064T]"
  phosphorylation enrichment: 0.858
- polymer sequence: "AEPDIYQEKLS [USP54_Y1233]"
  phosphorylation enrichment: 0.994
- polymer sequence: "FADIAYNYRHA [PAH_Y166_G171A]"
  phosphorylation enrichment: 0.578
- polymer sequence: "TCRPPYYHRNC [HGD_Y333_F329C]"
  phosphorylation enrichment: 0.243
- polymer sequence: "ESDFTYSSSFE [SRPK2_Y427_YF]"
  phosphorylation enrichment: 1.03
